meta.source: patent US5922727A

Parameter S.I.: see the listing below.
Test system: HIV
Format: cell-based
RECORDED CONDITIONS: ratio CD50/ED50; marker b (undefined, shared with AZT^b)

COMPOUND: Cc1cc(C)cc(Sc2c(C(C)C)c(=O)[nH]c(=O)n2CC2CCCC2)c1 [Example 20]
READING: 24,264

COMPOUND: Cc1cn([C@H]2C[C@H](N=[N+]=[N-])[C@@H](CO)O2)c(=O)[nH]c1=O [AZT, reference compound]
READING: 1,123

COMPOUND: Cc1cc(C)cc(Oc2c(C(C)C)c(=O)[nH]c(=O)n2CC2CCCC2)c1 [Example 21]
READING: 3,089

Query: S.I.; subject: CCc1c(Oc2cc(C)cc(C)c2)n(CC2CC=CC2)c(=O)[nH]c1=O [Example 14]
400,238

====

The compounds listed here are annotated with their CD50.
Tested on: MT-4 cells
EXPERIMENTAL PROTOCOL: cytotoxicity: viability of mock-infected MT-4 host cells (MTT method)
Format: cell-based
RECORDED CONDITIONS: mock-infected MT-4 cells, marker e (undefined, shared with AZT^e)
Hey, just send me the number, nothing else.

Please review the following examples before continuing.
COMPOUND: Cc1cn([C@H]2C[C@H](N=[N+]=[N-])[C@@H](CO)O2)c(=O)[nH]c1=O [AZT, reference compound]
CD50: 1.84
--
COMPOUND: Cc1cc(C)cc(Oc2c(C(C)C)c(=O)[nH]c(=O)n2CCC2C=CCC2)c1 (stereo not shown)
CD50: 7.53
--
COMPOUND: CCc1c(C(=O)c2cc(C)cc(C)c2)n(CCC2CCCC2)c(=O)[nH]c1=O
CD50: 8.58

Then there is this compound:
Form field: reported CD50 of CCc1c(C(=O)c2cc(C)cc(C)c2)n(CCC2C=CCC2)c(=O)[nH]c1=O (stereo not shown)
7.11

====

Test system: MT-4 cells
EXPERIMENTAL PROTOCOL: cytotoxicity: viability of mock-infected MT-4 host cells (MTT method)
Format: cell-based
Set-up: unit not given here
RECORDED CONDITIONS: mock-infected MT-4 cells, no run marker
Method: The anti-HIV assays were based on the inhibition of the virus-induced cytopathic effect in MT-4 cells as a described method in J. Med. Chem, 34, 357, 1991. […] After a 4 or 5 days incubation at 37° C., the number of viable cells was determined by the 3-(4,5-dimethylthiazol-2-yl)-2,5-diphenyltetrazolium bromide (MTT) method, as disclosed in J. Virol. […] The cytotoxicity of the compounds of the present invention was assessed in parallel with their antiviral activity. […]
CD50 listing for selected compounds.
// return a plain number; no unit text

Which value of CD50 has been reported for CCc1c(Sc2cc(C)cc(C)c2)n(CC2=CCC(CO)C2)c(=O)[nH]c1=O (stereo not shown) in the records?
7.69

// query: CCc1c(Oc2cc(C)cc(C)c2)n(CC2=CCC(CO)C2)c(=O)[nH]c1=O (stereo not shown)
12.78

Another: `CCc1c(Sc2cc(C)cc(C)c2)n(CC2CC=CC2)c(=O)[nH]c1=O`
7.86

Try this compound next: Cc1cc(C)cc(Sc2c(C(C)C)c(=O)[nH]c(=O)n2CC2=CCC(CO)C2)c1 (stereo not shown)
8.51

Also need Cc1cn([C@H]2C[C@H](N=[N+]=[N-])[C@@H](CO)O2)c(=O)[nH]c1=O [AZT, reference compound] , thanks.
1.58

Now this one: `CCc1c(Sc2cc(C)cc(C)c2)n(CC2=CCC(CO)(CO)C2)c(=O)[nH]c1=O`
14.64

Field entry: CCc1c(Oc2cc(C)cc(C)c2)n(CC2=CCCC2CO)c(=O)[nH]c1=O (stereo not shown)
55.37
